- assay_procedure: DUSP6 inhibitors restoring Erk phosphorylation by chemical complementation, primary imaging in DUSP6-transfected HeLa (AID 609)
- measurement_conditions: HeLa MKP-3 transfected, phospho-Erk imaging KS statistic; measured here: nuclear pErk red intensity z-score; at 10 µM; stronger effect = higher value; cells stimulated with TPA for 15 min
The following compounds are listed with their measured z-score values.
# respond with the number and nothing more

compound: O=C1CCc2nc3ccccc3c(=O)n2N1
z-score: -0.802

compound: CCOC(=O)CSC1=C(C#N)C(c2ccc(OC)cc2)C2=C(CC(C)(C)CC2=O)N1 (stereo unspecified)
z-score: -0.233

compound: CCOC(=O)c1[nH]c2cc3c(cc2c1NC(=O)CN1CCC(C)CC1)OCO3
z-score: -0.0577

compound: CCN(CC)CCNc1nc(-c2ccco2)c2c(c1C#N)CC(C)(C)OC2
z-score: 0.416

compound: Cc1nc(SC2C=CS(=O)(=O)C2)n[nH]1 (stereo unspecified)
z-score: 1.24

Q. State the recorded z-score for this entry: Cc1ccc(S(=O)(=O)NC(=O)NN2CCCCCC2)cc1
A. -1.05

Q. State the recorded z-score for this entry: CCN1CC=C2C(C#N)=C(N)C(C#N)(C#N)[C@H](c3cccc(OC)c3OC)[C@H]2C1
A. -1.6

Q. State the recorded z-score for this entry: COC(=O)c1ccccc1NC(=O)CSc1nnc(-c2ccncc2)o1
A. -1.26

Q. State the recorded z-score for this entry: N#CC1=C(SCC(=O)c2ccc(Cl)cc2)NC2=C(C(=O)CCC2)C1c1ccco1 (stereo unspecified)
A. -0.867

Q. State the recorded z-score for this entry: CSC(=Nc1ccccc1)C1=C(O)COC1=O
A. -1.01

Q. State the recorded z-score for this entry: CCOC(=O)c1cc2c(=O)n3cccc(C)c3nc2n(C)c1=N
A. -0.0406
